- target-under-test: Cyclin-dependent kinase 2/cyclin E1 (Homo sapiens) (UniProt P24864+P24941)
- protocol-description: Inhibition of human recombinant full length C-terminal His6 tagged CDK2/ N-terminal GST-tagged Cyclin E expressed in baculovirus infected Sf21 insect cells using histone H1 as substrate assessed as residual activity at 1 uM pretreated for 20 mins followed by [33P]-ATP addition measured after 120 mins by radiometric hotspot kinase assay relative to control
- condition-details: time 140.0 min

{"test-smiles": "COC(=O)c1cccc(-c2cnc3[nH]cc(-c4cncnc4)c3c2)c1", "Activity / %": 22.3}
{"test-smiles": "COC(=O)c1cccc(-c2cnc3[nH]cc(-c4ccccc4)c3c2)c1", "Activity / %": 23.5}
{"test-smiles": "COC(=O)c1cccc(-c2cnc3[nH]cc(-c4cccnc4)c3c2)c1", "Activity / %": 1.6}
{"test-smiles": "COC(=O)c1cccc(-c2cnc3[nH]cc(-c4cccc(OC)c4)c3c2)c1", "Activity / %": 19.3}
{"test-smiles": "COC(=O)c1cccc(-c2cnc3[nH]cc(-c4ccncc4)c3c2)c1", "Activity / %": 1.8}
{"test-smiles": "N#Cc1cccc(-c2cnc3[nH]cc(-c4cccnc4)c3c2)c1", "Activity / %": 2.9}

----------
- target-under-test: Serine/threonine-protein kinase Nek1 (Homo sapiens) (UniProt Q96PY6)
- Sequence (Q96PY6 whole entry): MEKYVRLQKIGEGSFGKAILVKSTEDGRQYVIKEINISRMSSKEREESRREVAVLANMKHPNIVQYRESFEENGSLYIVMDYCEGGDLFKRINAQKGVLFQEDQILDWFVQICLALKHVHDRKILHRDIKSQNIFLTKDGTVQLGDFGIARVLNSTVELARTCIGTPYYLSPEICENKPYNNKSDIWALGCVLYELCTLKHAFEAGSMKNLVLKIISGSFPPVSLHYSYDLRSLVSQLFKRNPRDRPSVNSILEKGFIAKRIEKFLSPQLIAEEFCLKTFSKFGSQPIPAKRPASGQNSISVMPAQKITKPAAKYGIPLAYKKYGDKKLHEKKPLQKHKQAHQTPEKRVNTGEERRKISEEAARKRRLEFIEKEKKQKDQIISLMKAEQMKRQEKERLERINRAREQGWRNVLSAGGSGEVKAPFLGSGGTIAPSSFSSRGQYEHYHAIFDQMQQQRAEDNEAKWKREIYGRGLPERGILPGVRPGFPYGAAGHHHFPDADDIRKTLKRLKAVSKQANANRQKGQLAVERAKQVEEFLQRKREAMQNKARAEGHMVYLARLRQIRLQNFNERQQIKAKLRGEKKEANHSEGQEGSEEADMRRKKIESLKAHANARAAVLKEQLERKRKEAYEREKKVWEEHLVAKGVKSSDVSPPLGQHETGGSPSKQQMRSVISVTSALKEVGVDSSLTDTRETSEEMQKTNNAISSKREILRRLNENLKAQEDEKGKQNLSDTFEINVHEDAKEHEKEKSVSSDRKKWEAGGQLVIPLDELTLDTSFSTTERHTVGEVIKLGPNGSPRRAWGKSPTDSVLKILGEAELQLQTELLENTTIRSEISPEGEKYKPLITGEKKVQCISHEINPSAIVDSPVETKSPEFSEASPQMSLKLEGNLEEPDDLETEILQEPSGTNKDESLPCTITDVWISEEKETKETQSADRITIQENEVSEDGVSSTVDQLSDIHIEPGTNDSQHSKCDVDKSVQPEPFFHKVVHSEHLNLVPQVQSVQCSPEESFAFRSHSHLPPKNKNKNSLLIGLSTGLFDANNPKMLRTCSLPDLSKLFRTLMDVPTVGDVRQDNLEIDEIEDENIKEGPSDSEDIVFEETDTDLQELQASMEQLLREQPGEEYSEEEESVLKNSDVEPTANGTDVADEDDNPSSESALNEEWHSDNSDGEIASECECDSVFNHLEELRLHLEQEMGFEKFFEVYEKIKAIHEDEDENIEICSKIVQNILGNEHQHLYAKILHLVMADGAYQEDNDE
- protocol-description: Inhibition of human NEK1 using myelin basic protein as substrate assessed as residual activity at 10 uM in presence of [gamma-33P]-ATP by radiometric hotspot kinase assay relative to control
Activity strictly under 70% means true (1); at 70% or over means false (0).

{"test-smiles": "c1ccc(-c2cnc3[nH]ccc3c2)cc1", "class-name": "true (1)"}
{"test-smiles": "N#Cc1cccc(-c2cnc3[nH]ccc3c2)c1", "class-name": "true (1)"}
{"test-smiles": "COC(=O)c1cccc(-c2cnc3[nH]ccc3c2)c1", "class-name": "true (1)"}
{"test-smiles": "O=[N+]([O-])c1cccc(-c2cnc3[nH]ccc3c2)c1", "class-name": "false (0)"}
{"test-smiles": "CNC(=O)c1cccc(-c2cnc3[nH]ccc3c2)c1", "class-name": "true (1)"}
{"test-smiles": "O=C(O)c1cccc(-c2cnc3[nH]ccc3c2)c1", "class-name": "false (0)"}

----------
- target-under-test: Serine/threonine-protein kinase Chk1 (Homo sapiens)
- protocol-description: Inhibition of human recombinant full length N-terminal His tagged CHK1 expressed in baculovirus infected Sf21 insect cells using CHKtide as substrate assessed as residual activity at 1 uM pretreated for 20 mins followed by [33P]-ATP addition measured after 120 mins by radiometric hotspot kinase assay relative to control
- condition-details: time 140.0 min

{"test-smiles": "COC(=O)c1cccc(-c2cnc3[nH]cc(-c4cncnc4)c3c2)c1", "inequality-operator": "=", "Activity (%)": 73.8}
{"test-smiles": "COC(=O)c1cccc(-c2cnc3[nH]cc(-c4cccnc4)c3c2)c1", "inequality-operator": "=", "Activity (%)": 48.5}
{"test-smiles": "COC(=O)c1cccc(-c2cnc3[nH]cc(-c4ccncc4)c3c2)c1", "inequality-operator": "=", "Activity (%)": 85}
{"test-smiles": "COC(=O)c1cccc(-c2cnc3[nH]cc(-c4ccccc4)c3c2)c1", "inequality-operator": ">", "Activity (%)": 100}
{"test-smiles": "N#Cc1cccc(-c2cnc3[nH]cc(-c4cccnc4)c3c2)c1", "inequality-operator": "=", "Activity (%)": 69.6}
{"test-smiles": "COC(=O)c1cccc(-c2cnc3[nH]cc(-c4cccc(OC)c4)c3c2)c1", "inequality-operator": ">", "Activity (%)": 100}

----------
// Serine/threonine-protein kinase Nek1 (Homo sapiens, UniProt Q96PY6) log10(IC50) records
recorded-metric: log10(IC50) (log10 of the value in nM)

{"test-smiles": "N#Cc1cccc(-c2cnc3[nH]cc(-c4cccnc4)c3c2)c1", "log10(IC50)": 2.11}
{"test-smiles": "COC(=O)c1cccc(-c2cnc3[nH]cc(-c4cccc(OC)c4)c3c2)c1", "log10(IC50)": 2.22}
{"test-smiles": "COC(=O)c1cccc(-c2cnc3[nH]cc(-c4ccncc4)c3c2)c1", "log10(IC50)": 2.15}
{"test-smiles": "COC(=O)c1cccc(-c2cnc3[nH]cc(-c4cccnc4)c3c2)c1", "log10(IC50)": 1.06}
{"test-smiles": "COC(=O)c1cccc(-c2cnc3[nH]cc(-c4ccccc4)c3c2)c1", "log10(IC50)": 2.09}

----------
- protocol-description: Stability of the compound in DMEM measured after 48 hrs by DAD-HPLC method
- Type: physicochemical
- condition-details: read-out: Stability
The entries below are paired with their reported remaining at 48 h.
recorded-metric: remaining at 48 h (%)

{"test-smiles": "COC(=O)c1cccc(-c2cnc3[nH]cc(-c4cccc(OC)c4)c3c2)c1", "value-measured": 97}
{"test-smiles": "N#Cc1cccc(-c2cnc3[nH]cc(-c4cccnc4)c3c2)c1", "value-measured": 98}
{"test-smiles": "COC(=O)c1cccc(-c2cnc3[nH]cc(-c4ccncc4)c3c2)c1", "value-measured": 88}
{"test-smiles": "COC(=O)c1cccc(-c2cnc3[nH]cc(-c4ccccc4)c3c2)c1", "value-measured": 86}
{"test-smiles": "COC(=O)c1cccc(-c2cnc3[nH]cc(-c4cccnc4)c3c2)c1", "value-measured": 103}
{"test-smiles": "COC(=O)c1cccc(-c2cnc3[nH]cc(-c4cncnc4)c3c2)c1", "value-measured": 72}

----------
- target-under-test: UniProtKB P30291
- Sequence (P30291 whole entry, looked up): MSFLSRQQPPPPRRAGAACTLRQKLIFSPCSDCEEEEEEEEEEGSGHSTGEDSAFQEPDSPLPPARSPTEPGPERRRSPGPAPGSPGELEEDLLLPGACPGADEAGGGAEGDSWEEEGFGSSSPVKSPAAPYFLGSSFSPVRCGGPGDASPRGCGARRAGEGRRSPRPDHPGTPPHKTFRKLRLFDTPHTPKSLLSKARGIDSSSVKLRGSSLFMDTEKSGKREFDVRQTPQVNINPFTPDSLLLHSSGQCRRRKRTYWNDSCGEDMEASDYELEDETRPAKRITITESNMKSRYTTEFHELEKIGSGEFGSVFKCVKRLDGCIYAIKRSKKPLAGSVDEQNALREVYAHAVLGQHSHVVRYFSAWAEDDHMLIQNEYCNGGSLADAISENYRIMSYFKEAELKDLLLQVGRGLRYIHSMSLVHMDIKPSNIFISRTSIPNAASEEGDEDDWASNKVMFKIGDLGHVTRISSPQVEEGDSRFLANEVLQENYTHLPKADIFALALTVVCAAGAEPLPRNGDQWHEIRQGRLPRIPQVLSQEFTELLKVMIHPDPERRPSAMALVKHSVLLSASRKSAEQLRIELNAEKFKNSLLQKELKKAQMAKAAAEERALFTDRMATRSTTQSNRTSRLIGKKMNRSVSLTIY
- protocol-description: Inhibition of human recombinant full length WEE1 expressed in insect cells using MBP as substrate assessed as residual activity at 1 uM pretreated for 20 mins followed by [33P]-ATP addition measured after 120 mins by radiometric hotspot kinase assay relative to control
- condition-details: time 140.0 min
The threshold is inclusive: Activity of exactly 80% counts as 1 (yes); values below receive 0 (no).

{"test-smiles": "COC(=O)c1cccc(-c2cnc3[nH]cc(-c4cncnc4)c3c2)c1", "class-name": "0 (no)"}
{"test-smiles": "COC(=O)c1cccc(-c2cnc3[nH]cc(-c4cccc(OC)c4)c3c2)c1", "class-name": "1 (yes)"}
{"test-smiles": "COC(=O)c1cccc(-c2cnc3[nH]cc(-c4ccccc4)c3c2)c1", "class-name": "1 (yes)"}
{"test-smiles": "N#Cc1cccc(-c2cnc3[nH]cc(-c4cccnc4)c3c2)c1", "class-name": "1 (yes)"}

----------
- protocol-description: Permeability across basolateral to apical side in human Caco-2 cells at pH 7.4 assessed as compound recovery at 1 uM
- Assay type: ADME, cell-based
- condition-details: Caco-2, pH 7.4, read-out: Drug recovery

{"test-smiles": "COC(=O)c1cccc(-c2cnc3[nH]cc(-c4cccnc4)c3c2)c1", "recovery at 1 µM": "29.6%"}
{"test-smiles": "COC(=O)c1cccc(-c2cnc3[nH]cc(-c4cncnc4)c3c2)c1", "recovery at 1 µM": "41.1%"}
